Measured values drawn from the supplement of paper PMC12042874 for this set.

assay: amyloid nucleation score (Sup35N fusion, yeast selection) (log enrichment); library NNK1; higher = more nucleation; inactive = no reads after selection;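 further: zero at mode of non-aggregating sequences after 7 days selection at 30°C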
Please mark Satisfied if the recorded amyloid nucleation score is equal to or greater than 0.6, and Not satisfied if it falls below.

Use these answered entries as a reference point.
NKVHSSFSLGGLPEARASDE :: Satisfied
GRVLYKSCALNNFSIMQVLC :: Satisfied
FLSEMWTKVICWVCCCPVYA :: Satisfied
RPCIWFGTTCFYCTVFN :: Satisfied
SQTNSIISCLERFAGGLVLI :: Not satisfied
PWGTCQQYRYTFWPVSAC :: Not satisfied

Decide: amyloid nucleation score of `MAPEFCIEDKIRVVPFLIPI` >= 0.6?
Not satisfied

One more substance: `YVDSSI`
Not satisfied

What about this substance? `NQMGRRQRVLRSSDSRPTVL`
Not satisfied

And the next one, `VVSYTVQGGRSSHMANWG` ?
Not satisfied

Thanks! And `DWRNAFLLCYANRNVQTCMS` ?
Not satisfied

# repeat for `SEGWHGPGARVCLVFKNSRV`
Not satisfied

Input `SSPWRYSDATFCTAGGEGKS`
Not satisfied

Now try `RALGIDIRIFMVDDNSAFSI` .
Not satisfied

Similarly, `TSLCCSYWFSSVIGFSGYCG` ?
Satisfied

Then what about the substance `SGRGWEAYIYCWVRLVRLVW` ?
Not satisfied

Now the substance `FIMVCGSKGLLVALGALE`
Not satisfied

----------
assay: amyloid nucleation score (Sup35N fusion, yeast selection) (log enrichment); library NNK1; higher = more nucleation; inactive = no reads after selection
value-type: amyloid nucleation score
Just the number, please, no unit after it.

YCSQPSAWSLRLNRSCPHNM :: -0.593
YARSSFEDIVVFRDRFG :: 5.47
NGTTLVAVSYELPLSGVLSK :: -0.798
GCKSGDGQRVGVLLNQNCTR :: 0.863
FVCYSLNSSSFMIPYWILLK :: -0.293

Form field: reported amyloid nucleation score of `SSYSRCTFKAFKLGSVRVQV`
0.924

Now consider `YTHDIRSVGGLQESGLGVWV` .
-0.094

Repeat with `LNAKFIVKW`
0.588

Now this one: `INTYWAGCIFCRMFGESRLK`
7.25

Now the same for `YADWLEDCETVP`
-0.309

Try this substance too: `VPDESDHFSFRVEMLSLKVD`
-0.639

Item: `QIFLWFGISNKDFLHFVSWS`
0.158

How about `VYILLRVRVWSFYVVVVSRF` ?
0.484

// next record `NDYEELIMYFKEDVF`
1.76

Do the same for `CVFGYCVALHF` please
6.18

What about this substance? `RRGSNDDSYHRRQVDRKPMA`
0.166

Field entry: `IGVKTYYTLFIGSMYFNSKG`
3.22

Repeat with `HKTFGCCLDLWHIMPHFIIL`
-0.396

Try this substance next: `GMARHEMRGGMHSTLLRLTA`
0.735

Then `IIAKNTDKVSCTVRVSFL` ?
-0.894

Follow-up entry: `WNSVVHINSVNYCV`
6.73

Also `DSLSNLCDFCSSK` , if possible.
0.668

Entry `GNGVLAVTVSFAGTSLSLRF` please
-0.047

And the next one, `TYNYFCGLVIVVVNGVHLRV` ?
5.51

And what about the substance `DIKCLLR` ?
0.238

Lookup `YPMRTQRVASHMV`
-0.383

Next: `IMMHSGPRKVPGSFGQTVHD`
0.019

Request: `KCIQGTGSLWD`
-0.128

----------
test: amyloid nucleation score (Sup35N fusion, yeast selection) (log enrichment); library NNK2; higher = more nucleation; inactive = no reads after selection
Quick reference: amyloid nucleation score of the listed items.
Kindly provide the number alone.

The examples below pair each entry with its known result.
FCIVQIMDVTVLGSTSATID :: 5.59
VYRNNL :: -1.84
FSHYLSRRGRPYHANCKEAL :: -0.922
LTSHLYIYGMW :: -0.766
GFSRRGELHVSVYHIRDTFG :: 4.88
KCLCAGFLF :: -0.577
YCGLFKGYVYRL :: -1.43
IFQRWHIS :: -2.67
WYERVWLAWSR :: 0.66
SSPAACYMR :: -1.69

Read the next record carefully.
Requested field: amyloid nucleation score. Item: `WFGFGESAHLYRLREEDFHD`
-0.206

----------
experiment: amyloid nucleation score (Sup35N fusion, yeast selection) (log enrichment); library NNK1; higher = more nucleation; inactive = no reads after selection
value-type: amyloid nucleation score

DGSVGFLMLEVCLWHSFLAC :: inactive
LGFMTCSP :: inactive
LVLVWVAIHFDRLRIHRFFI :: inactive
CGCETDMGSA :: inactive
NGFQLTILKDHGLVKRQSPR :: inactive
SHTWKGTSCAFAMHAQRGSQ :: inactive
APQSRFNHEYFFENIRRVVV :: inactive
PTCQGITWMPRQLWLMGGAD :: 0.507

The record that follows has no amyloid nucleation score shown yet.
Reported amyloid nucleation score, substance `RYHSMYTNSNTRGFGSSLQL` : ____
inactive

----------
assay: amyloid nucleation score (Sup35N fusion, yeast selection) (log enrichment); library NNK3; higher = more nucleation; inactive = no reads after selection
value-type: amyloid nucleation score

Use the examples below as a reference point.
TGLNIILLLCFMMSLGES :: inactive
DCFNNWWVTHYQQINFPTVA :: inactive
TLDAILNLHTS :: inactive
LILFPRKRHTGSM :: inactive
LLIDCYVDYSC :: 0.105

Sample `SNLRFFVAFLQGRSLN` — what was its amyloid nucleation score?
0.959

Continue with `HIWAHAFISLVLWLSPLSVS`
inactive

Same question for `WPIATTMSKGVCVRRVRGRD` please.
-0.411

Please answer likewise for `MGMLNGSSSMSDGYVYGGLW`
inactive

Let us now turn to `YHTPCSTSDVARRGRYSRRD`
inactive

Another substance to look at: `WDIWCRS`
inactive

----------
test: amyloid nucleation score (Sup35N fusion, yeast selection) (log enrichment); library NNK1; higher = more nucleation; inactive = no reads after selection
Attribute: amyloid nucleation score
Quick one: just the number, no unit, thanks!

HGCKYAKGASDLYDIMCFCW :: 0.602
FVVSDTGKVKWGMAQ :: 2.68
SSVLATFIKLQHQGRKRKDR :: -0.198
MKYPENSQWKDLYGFTVQVH :: 0.102
CRYFSSSSGEAGQIFVVICG :: -0.201

Dear colleague, I am looking for the recorded amyloid nucleation score of the following substance: `DRLGDHLKDILVKFYNV`
0.294

Follow-up entry: `IICKVCLCVAPM`
2.81

What do you get for `QMTKNYEWDSTRIACVGLHR` ?
2.68

Ok, now `PECQSGCMV`
-0.163

Another substance: `FIMIDRPETLQPNLDGLKL`
-0.524

Would you kindly repeat that for `RKNFLGIGQKLGSSSDWGG` ?
-0.899

Similarly, `IGTYGHRMELLIGSRCKSRT` ?
-0.15

Field entry: `NSTPLADRCSVGMLPALKAD`
-0.351

Now try `RGDAIMAWGSVVRYIHYILY` .
1.51

Could you do the same for `QRLFRYNPTKSRGLCNNTWA` , please?
0.59

Queued: `WNQTSPRQCAVTMSANVTGN`
0.575

Follow-up entry: `DSGDEGVIVSVSHGWTSEGL`
0.443

What would you report for `ERGMEVLCNYENKGL` ?
0.918

Then `LLKRRTREIAALYRHSSNGY` ?
1.26

Please give the result for `IFSGSPGLN` too.
5.71

What about this substance? `DGEFRRDSSCVGVEERVVLV`
0.551

Can you handle `KFYYSLDVSSRCNFVLLEVE` next?
0.669

Then what about the substance `STSDMLVDSRQIVGEYTSDL` ?
-1.3

----------
// amyloid nucleation score lookup, one value per entry
test: amyloid nucleation score (Sup35N fusion, yeast selection) (log enrichment); library NNK2; higher = more nucleation; inactive = no reads after selection
When you answer, write just the number.

Name the recorded amyloid nucleation score for `RWHLFSITYLKVLDWDCCLW` .
5.45

Param item: `MHASGHWYMKRSSLGADSPV`
0.815

Next up: `VVHDNW`
0.29

----------
assay: amyloid nucleation score (Sup35N fusion, yeast selection) (log enrichment); library NNK1; higher = more nucleation; inactive = no reads after selection
Tick Fulfilled if amyloid nucleation score is 0.5 or greater. Tick Not fulfilled if amyloid nucleation score is less than 0.5.

Worked examples follow.
FLIEMCYV :: Not fulfilled
TFLGGAPVGKIFTLIWLGRG :: Fulfilled

Pending substance:
Has `GRLVVIAYQMQSCDSTMD` a recorded amyloid nucleation score greater than or equal to 0.5?
Not fulfilled
